- Tested on: Staphylococcus aureus
- ASSAY METHOD TEXT: Antibacterial activity against methicillin-resistant Staphylococcus aureus USA300 NRS384 clinical isolate after 20 hrs by broth microdilution method
- Type: functional
- CONDITIONS: USA300 NRS384, 20 h
Give measured log10(MIC) for each item. Keep answers brief.
The common logarithm of MIC in µg/mL is what is listed.

Simply: C/C(=N\NC(=N)N)c1ccc(NC(=O)Nc2ccc(OCC3CCC3)cc2)cc1 , Staphylococcus aureus, log10(MIC) = 1.20

Quick request: log10(MIC) for each listed item, please.
1. C/C(=N\NC(=N)N)c1ccc(NC(=O)Nc2ccc(OCCCC(C)C)cc2)cc1
2. CCCCCOc1ccc(NC(=O)Nc2ccc(/C(C)=N/NC(=N)N)cc2)cc1

[0.90, 0.60]

Please give log10(MIC) for each item listed below.
1. C/C(=N\NC(=N)N)c1ccc(NC(=O)Nc2ccc(OCC(C)C)cc2)cc1
2. CCCCCCCOc1ccc(NC(=O)Nc2ccc(/C(C)=N/NC(=N)N)cc2)cc1

0.60
1.20

For every listed record, write down its log10(MIC).
1. CCCCOc1ccc(NC(=O)Nc2ccc(/C(C)=N/NC(=N)N)cc2)cc1
2. CCCOc1ccc(NC(=O)Nc2ccc(/C(C)=N/NC(=N)N)cc2)cc1
3. C/C(=N\NC(=N)N)c1ccc(NC(=O)Nc2ccc(OCCC(C)C)cc2)cc1

[1.20, 0.90, 0.30]

Would you mind listing log10(MIC) for each of the following molecules?
1. CCCCCCCCCOc1ccc(NC(=O)Nc2ccc(/C(C)=N/NC(=N)N)cc2)cc1
2. C/C(=N\NC(=N)N)c1ccc(NC(=O)Nc2ccc(OCc3ccccc3)cc2)cc1

[1.51, 0.90]

For the 3 molecules below, give their log10(MIC) values.
1. CCCCCCOc1ccc(NC(=O)Nc2ccc(/C(C)=N/NC(=N)N)cc2)cc1
2. C/C(=N\NC(=N)N)c1ccc(NC(=O)Nc2ccc(OC3CCCCCC3)cc2)cc1
3. CCCCCCCCOc1ccc(NC(=O)Nc2ccc(/C(C)=N/NC(=N)N)cc2)cc1

0.90
0.30
1.20

----------
So I've got a bunch of molecules here, and I need their MIC values.
- Test system: Staphylococcus aureus
- ASSAY METHOD TEXT: Antibacterial activity against methicillin-resistant Staphylococcus aureus USA100 NRS382 clinical isolate after 20 hrs by broth microdilution method
- Type: functional
- CONDITIONS: USA100 NRS382, 20 h

Take a look at these entries with their results.
Input CCCOc1ccc(NC(=O)Nc2ccc(/C(C)=N/NC(=N)N)cc2)cc1 . Output MIC: 8 µg/mL

So for CCCCCOc1ccc(NC(=O)Nc2ccc(/C(C)=N/NC(=N)N)cc2)cc1 , the logged MIC turned out to be 4 µg/mL

Looking up CN[C@H](CC(C)C)C(=O)N[C@H]1C(=O)N[C@@H](CC(N)=O)C(=O)N[C@H]2C(=O)N[C@H]3C(=O)N[C@H](C(=O)N[C@H](C(=O)O)c4cc(O)cc(O)c4-c4cc3ccc4O)[C@H](O)c3ccc(c(Cl)c3)Oc3cc2cc(c3O[C@@H]2O[C@H](CO)[C@@H](O)[C@H](O)[C@H]2O[C@H]2C[C@](C)(N)[C@H](O)[C@H](C)O2)Oc2ccc(cc2Cl)[C@H]1O , I found its MIC recorded as < 1 µg/mL

MIC reading for CCCCCCCOc1ccc(NC(=O)Nc2ccc(/C(C)=N/NC(=N)N)cc2)cc1 : 16 µg/mL

So, C/C(=N\NC(=N)N)c1ccc(NC(=O)Nc2ccc(OC3CCCCCC3)cc2)cc1 ? Its MIC was 2 µg/mL

Entry C/C(=N\NC(=N)N)c1ccc(NC(=O)Nc2ccc(OCC(C)C)cc2)cc1 , MIC reported as 8 µg/mL

Hi team, please reply with MIC for each item in this list.
1. CCCCCCCCOc1ccc(NC(=O)Nc2ccc(/C(C)=N/NC(=N)N)cc2)cc1
2. CCC(CC)COc1ccc(NC(=O)Nc2ccc(/C(C)=N/NC(=N)N)cc2)cc1
3. C/C(=N\NC(=N)N)c1ccc(NC(=O)Nc2ccc(OCC3CCC3)cc2)cc1
4. CCCCCCCCCOc1ccc(NC(=O)Nc2ccc(/C(C)=N/NC(=N)N)cc2)cc1
5. CCCCOc1ccc(NC(=O)Nc2ccc(/C(C)=N/NC(=N)N)cc2)cc1

1: 16 µg/mL; 2: 128 µg/mL; 3: 16 µg/mL; 4: 32 µg/mL; 5: 16 µg/mL
